TESTED ON: recombinant alpha-glucosidase I (human full-length glucosidase I, Glu 1) (Homo sapiens)
Construct: 6-His (C); made in house; host or cells: HEK-293T cells transduced with BacMam virus (virus raised in Sf9)
Sequence (Q13724 whole entry): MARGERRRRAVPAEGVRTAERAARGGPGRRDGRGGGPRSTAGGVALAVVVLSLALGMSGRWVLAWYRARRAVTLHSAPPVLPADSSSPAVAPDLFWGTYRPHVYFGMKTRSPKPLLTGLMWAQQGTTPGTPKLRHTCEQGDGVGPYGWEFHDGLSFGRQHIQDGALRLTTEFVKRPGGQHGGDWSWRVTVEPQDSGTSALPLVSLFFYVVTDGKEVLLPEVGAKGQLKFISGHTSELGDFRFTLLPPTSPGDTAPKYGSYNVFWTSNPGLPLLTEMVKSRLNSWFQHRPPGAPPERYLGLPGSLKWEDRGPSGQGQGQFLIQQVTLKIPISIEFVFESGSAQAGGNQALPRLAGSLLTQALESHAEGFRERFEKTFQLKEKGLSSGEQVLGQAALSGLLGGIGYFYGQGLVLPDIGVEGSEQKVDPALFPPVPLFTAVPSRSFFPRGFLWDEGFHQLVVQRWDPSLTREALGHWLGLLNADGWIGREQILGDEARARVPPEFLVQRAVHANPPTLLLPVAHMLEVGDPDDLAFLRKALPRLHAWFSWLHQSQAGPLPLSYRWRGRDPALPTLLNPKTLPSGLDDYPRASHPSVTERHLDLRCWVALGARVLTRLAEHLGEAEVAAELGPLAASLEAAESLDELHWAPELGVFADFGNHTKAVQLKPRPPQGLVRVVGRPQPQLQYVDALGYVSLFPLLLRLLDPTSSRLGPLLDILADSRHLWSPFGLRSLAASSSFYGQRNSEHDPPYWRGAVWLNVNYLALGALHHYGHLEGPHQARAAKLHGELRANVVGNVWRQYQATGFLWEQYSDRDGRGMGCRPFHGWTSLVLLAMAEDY
METHOD DESCRIPTION: Alpha-glucosidase I assay (Amplex Red glucose detection, synthetic trisaccharide substrate)
Format: biochemical
TEST CONTEXT: Glucosidase 1; read-out: Glu 1 IC50
Experimental: Preparation of Human Full-length Glucosidase I: The amino acid sequence for human full-length glucosidase I was obtained from UniProt (Q13724). […] The entry vector was cloned into Kemp Proteins' BacMam Destination vector and transformed into chemically competent DH10Bac E. coli cells to produce recombinant glucosidase I bacmids. […] Soluble glucosidase I was detected by anti-His western blots in the soluble cell extract following extraction with 1% V/V NP40 for 30 minutes at 0° C. […]
pIC50: −log10 of the molar value.
RECORDED ENDPOINT: pIC50

[
  {
    "COMPOUND": "OC[C@@H]1[C@@H](O)[C@H](O)[C@@H](O)CN1Cc1ccc(CNc2cc(-c3cccnn3)cc(C3CC3)c2)cc1 [Compound 1012]",
    "REL": "=",
    "MEAS VALUE": 7.74
  },
  {
    "COMPOUND": "O=S(=O)(Nc1cc(NCCCCCCN2C[C@H](O)[C@@H](O)[C@H](O)[C@H]2CO)cc(-c2ncccn2)c1)C1CC1 [Compound 1114]",
    "REL": "=",
    "MEAS VALUE": 6.97
  },
  {
    "COMPOUND": "COC(OC)c1cc(NCCCCCCN2C[C@H](O)[C@@H](O)[C@H](O)[C@H]2CO)cc(-c2ncccn2)c1 [Compound 1124]",
    "REL": "=",
    "MEAS VALUE": 6.29
  },
  {
    "COMPOUND": "[N-]=[N+]=Nc1ccc(NCCc2nccc(CCN3C[C@H](O)[C@@H](O)[C@H](O)[C@H]3CO)n2)c([N+](=O)[O-])c1 [Compound 1188]",
    "REL": "=",
    "MEAS VALUE": 6.12
  },
  {
    "COMPOUND": "CC#Cc1ccc(NCCCCCCN2C[C@H](O)[C@@H](O)[C@H](O)[C@H]2CO)c([N+](=O)[O-])c1 [Compound 1290]",
    "REL": "=",
    "MEAS VALUE": 7.44
  },
  {
    "COMPOUND": "CS(=O)(=O)c1cc(NCCCCCCN2C[C@H](O)[C@@H](O)[C@H](O)[C@H]2CO)cc(-c2ncccn2)c1 [Compound 1128]",
    "REL": "=",
    "MEAS VALUE": 6.94
  },
  {
    "COMPOUND": "N#Cc1ccc(F)cc1NCCCCCCN1C[C@H](O)[C@@H](O)[C@H](O)[C@H]1CO [Compound 1251]",
    "REL": "=",
    "MEAS VALUE": 6.65
  },
  {
    "COMPOUND": "O=[N+]([O-])c1cc(C2=COCCO2)ccc1NCc1cccc(CN2C[C@H](O)[C@@H](O)[C@H](O)[C@H]2CO)c1 [Compound 1087]",
    "REL": ">",
    "MEAS VALUE": 9.00
  },
  {
    "COMPOUND": "OC[C@@H]1[C@@H](O)[C@H](O)[C@@H](O)CN1Cc1cccc(CNc2ccc(-c3ncccn3)cc2)c1 [Compound 1084]",
    "REL": "=",
    "MEAS VALUE": 7.10
  },
  {
    "COMPOUND": "[N-]=[N+]=Nc1ccc(N2CCN(CCN3C[C@H](O)[C@@H](O)[C@H](O)[C@H]3CO)CC2)c([N+](=O)[O-])c1 [Compound 1254]",
    "REL": "=",
    "MEAS VALUE": 5.17
  },
  {
    "COMPOUND": "[N-]=[N+]=Nc1ccc(NCCc2ccc(CCN3C[C@H](O)[C@@H](O)[C@H](O)[C@H]3CO)s2)c([N+](=O)[O-])c1 [Compound 1186]",
    "REL": "=",
    "MEAS VALUE": 8.52
  },
  {
    "COMPOUND": "CS(=O)(=O)c1cc(Br)cc(NCc2ccc(CN3C[C@H](O)[C@@H](O)[C@H](O)[C@H]3CO)cc2)c1 [Compound 1025]",
    "REL": "=",
    "MEAS VALUE": 7.68
  },
  {
    "COMPOUND": "O=C(O)c1cc(Cl)cc(NCCc2ccc(CCN3C[C@H](O)[C@@H](O)[C@H](O)[C@H]3CO)cc2)c1 [Compound 1117]",
    "REL": "=",
    "MEAS VALUE": 6.06
  },
  {
    "COMPOUND": "COC(=O)c1cc(Cl)cc(NCCc2ccc(CCN3C[C@H](O)[C@@H](O)[C@H](O)[C@H]3CO)cc2)c1 [Compound 1116]",
    "REL": "=",
    "MEAS VALUE": 5.87
  },
  {
    "COMPOUND": "COc1cc(NCCCCCCN2C[C@H](O)[C@@H](O)[C@H](O)[C@H]2CO)cc(C2=CCCO2)c1 [Compound 1147]",
    "REL": "=",
    "MEAS VALUE": 6.58
  },
  {
    "COMPOUND": "OC[C@@H]1[C@@H](O)[C@H](O)[C@@H](O)CN1Cc1cccc(CNc2ccc(N3CCOCC3)cc2)c1 [Compound 1081]",
    "REL": "=",
    "MEAS VALUE": 6.77
  },
  {
    "COMPOUND": "COc1cc(NCCc2ccc(CCN3C[C@H](O)[C@@H](O)[C@H](O)[C@H]3CO)cc2)cc(-c2cccnn2)c1 [Compound 1157]",
    "REL": "=",
    "MEAS VALUE": 6.47
  },
  {
    "COMPOUND": "N#Cc1cc(-c2ncccn2)ccc1NCCCCCCN1C[C@H](O)[C@@H](O)[C@H](O)[C@H]1CO [Compound 1256]",
    "REL": "=",
    "MEAS VALUE": 7.05
  },
  {
    "COMPOUND": "O=[N+]([O-])c1cc(C2CC2)ccc1NCCCCCCN1C[C@H](O)[C@@H](O)[C@H](O)[C@H]1CO [Compound 1136]",
    "REL": "=",
    "MEAS VALUE": 7.60
  },
  {
    "COMPOUND": "COc1cc(-c2ncco2)ccc1NCCCCCCN1C[C@H](O)[C@@H](O)[C@H](O)[C@H]1CO [Compound 1207]",
    "REL": "=",
    "MEAS VALUE": 6.93
  },
  {
    "COMPOUND": "[N-]=[N+]=Nc1ccc(NCCc2cccc(CCN3C[C@H](O)[C@@H](O)[C@H](O)[C@H]3CO)c2)c([N+](=O)[O-])c1 [Compound 1240]",
    "REL": "=",
    "MEAS VALUE": 6.55
  },
  {
    "COMPOUND": "Cc1cc(NCc2ccc(CN3C[C@H](O)[C@@H](O)[C@H](O)[C@H]3CO)cc2)cc(-c2ncco2)c1 [Compound 1315]",
    "REL": "=",
    "MEAS VALUE": 7.40
  },
  {
    "COMPOUND": "Cc1cc(Br)cc(NCc2cccc(CN3C[C@H](O)[C@@H](O)[C@H](O)[C@H]3CO)c2)c1 [Compound 1021]",
    "REL": "=",
    "MEAS VALUE": 8.22
  },
  {
    "COMPOUND": "COc1cc(Br)cc(NCCn2cc(CCN3C[C@H](O)[C@@H](O)[C@H](O)[C@H]3CO)c3ccccc32)c1 [Compound 1075]",
    "REL": "=",
    "MEAS VALUE": 5.72
  },
  {
    "COMPOUND": "[N-]=[N+]=Nc1ccc(NCCc2cc(CCN3C[C@H](O)[C@@H](O)[C@H](O)[C@H]3CO)ccc2C2CCCCC2)c([N+](=O)[O-])c1 [Compound 1171]",
    "REL": "=",
    "MEAS VALUE": 6.52
  },
  {
    "COMPOUND": "Cc1cc(NCc2cccc(CN3C[C@H](O)[C@@H](O)[C@H](O)[C@H]3CO)n2)cc(-c2ncccn2)c1 [Compound 1322]",
    "REL": "=",
    "MEAS VALUE": 5.51
  },
  {
    "COMPOUND": "Cc1cc(Br)cc(NCc2ccc(CN3C[C@H](O)[C@@H](O)[C@H](O)[C@H]3CO)cc2)c1 [Compound 1024]",
    "REL": "=",
    "MEAS VALUE": 8.10
  }
]
